# assay protocol: TLR3 IRF3 reporter activation blockers – cell-based, poly I:C stimulus, luciferase, 10K MLSCN set, primary screen (AID 602277)
# condition info: HEK293-TLR3 RL24 IRF3 luciferase reporter, at 10 µM, stronger effect = higher value
Please go through the items and note down their inhibition.
Numbers only, in %.

Below: 10 compounds and their reported inhibition.
{"compound": "Nc1nnc(-c2cc3ccccc3oc2=O)s1", "reading unit": "%", "inhibition": -27.9}
{"compound": "CCOC(=O)c1c(C)[nH]c(C=Nc2ccccc2)c1O", "reading unit": "%", "inhibition": -41.4}
{"compound": "O=c1[nH]c2cc3c(cc2cc1C(c1nnnn1Cc1ccccc1)N1CCCc2ccccc21)OCO3 (stereo unspecified)", "reading unit": "%", "inhibition": 15.5}
{"compound": "O=C(Cc1nc2ccccc2s1)c1ccc(O)cc1O", "reading unit": "%", "inhibition": -88.7}
{"compound": "CC(C)(CO)NC(=O)CCCOc1ccc(Cl)cc1Cl", "reading unit": "%", "inhibition": -47.8}
{"compound": "O=C(O)CCCC(=O)NCCc1ccncc1", "reading unit": "%", "inhibition": 33.4}
{"compound": "COc1ccc(C(=O)OC(COc2ccccc2)Cn2ccnc2)cc1 (stereo unspecified)", "reading unit": "%", "inhibition": -24.8}
{"compound": "CCOC(=O)c1cc(CC)sc1NC(=O)COC", "reading unit": "%", "inhibition": 4.15}
{"compound": "CC(C)CCN(C)C1CCN(S(=O)(=O)c2ccc(F)cc2)CC1", "reading unit": "%", "inhibition": 40.9}
{"compound": "Cc1ccccc1Cn1ccc(NC(=O)c2cnn3c(C(F)(F)F)cc(-c4ccco4)nc23)n1", "reading unit": "%", "inhibition": 32}

Hi there! I need inhibition for each item below, if you can.
1. CCN1CCN(CCCNC(=O)c2cc3sccc3n2CC)CC1
2. O=C(OCN1C(=O)c2ccccc2C1=O)c1ccc2c(=O)n3c(nc2c1)CCC3
3. O=C(Nc1ccc2oc(=O)ccc2c1)c1cccnc1
4. NC(=O)c1cc(-c2ccccc2)nc(N2CCOCC2)n1
5. Cc1nn(-c2ccccc2)c2c1C(c1c(C)[nH]c(C#N)c1C)C(C#N)=C(N)O2 (stereo unspecified)
6. CC(CC(=O)NCc1ccccc1)C1CCCO1 (stereo unspecified)
7. COc1ccc(N=C2C(=O)Nc3ccccc32)cc1

Output line:
15.5
16.5
0.246
25.8
13
-9.76
28.1

Please go through the list and note inhibition for each compound.
1. COc1cccc(C(=O)n2cnnc2N)c1OC
2. CCCCCCn1c(CN2CCN(Cc3ccccc3)CC2)nc2c1c(=O)n(C)c(=O)n2C
3. C=C(C)Cn1c(CCNC(=O)CC)nc2ccccc21

Output line:
[21.1, 17.3, 14.1]

---

# target of assay: Voltage-gated potassium channel subunit beta-2 (Rattus norvegicus)
# assay protocol: enhancers of rat Kvbeta2 NADPH turnover – biochemical, NADPH fluorescence, primary screen (AID 623);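 also: fluorescence intensity change per second fitted from 20 to 320 s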
# condition info: Recombinant KvBeta, NADPH fluorescence decrease slope, 10 min; at 10 µM; stronger effect = lower value
The source made the active and inactive calls.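 How the source made its calls: active means NADPH fluorescence slope more negative than the mean of all samples by about 3 SD, 99.7% confidence; inactive means the rest.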
parameter measured: NADPH fluorescence slope

// known answers, use as guide
{"molecule": "CCOc1ccc(/C=N/n2cnnc2)cc1", "result": "-9.1e-05 (inactive)"}
{"molecule": "Cc1ccc(C(=O)Nc2c(C(=O)N3CCOCC3)cnn2-c2ccccc2)cc1", "result": "-3.7e-05 (inactive)"}
{"molecule": "CN(C)Cc1cn(CCC(=O)O)c2ccccc12", "result": "4.3e-05 (inactive)"}
{"molecule": "COc1cccc(N2C(=O)N(c3ccccc3Cl)C3CS(=O)(=O)CC32)c1 (stereo not drawn)", "result": "-1.8e-05 (inactive)"}
{"molecule": "O=C(OC1CCc2ccccc2C1=O)c1ccccc1O (stereo not drawn)", "result": "-5.3e-05 (inactive)"}

I would be grateful if you could provide NADPH fluorescence slope for each of the following entries.
1. Cc1cc2c(c(=O)o1)C(C13C=CC(CC1)C3)C(C#N)=C(N)O2 (stereo not drawn)
2. CCOC(=O)CSC1=C(C#N)C(c2ccc(Cl)cc2)C(C(=O)OC)C(=O)N1 (stereo not drawn)
3. O=c1cc(CN2CCN(c3ccc(F)cc3)CC2)nc2sccn12
4. COc1cccc(C2C(C(=O)c3cccs3)=C(O)C(=O)N2CCCn2ccnc2)c1OC (stereo not drawn)
5. Cc1ccc(NC(=O)COc2nc(C)cs2)cc1
6. COc1ccc(-n2c(Cc3cccn3C)nnc2SCC(=O)Nc2cccc(Cl)c2)cc1

Output line:
-5.8e-05 (inactive)
-5.6e-05 (inactive)
2.3e-05 (inactive)
-6.6e-05 (inactive)
-5e-05 (inactive)
1.6e-05 (inactive)
